- Tested on: MV4-11
- test-summary: CellTox Green cytotoxicity fluorescence relative to DMSO vehicle (fold of vehicle RFU); higher = more cell death (loss of membrane integrity), active = 2 or more
- condition-info: 0.1 µM; 72 h
Quick rule for you: CellTox Green cytotoxicity fluorescence at 1 or higher means Y, lower means N.

| structure-string | class-label |
| --- | --- |
| COc1ccc(C2=N[C@@H](c3ccc(Cl)cc3)[C@@H](c3ccc(Cl)cc3)N2C(=O)N2CCNC(=O)C2)c(OC(C)C)c1 | Y |
| C=CCc1cccc(/C=N/NC(=O)CN2CCN(Cc3ccccc3)CC2)c1O | N |

Continue with the molecule presented below.
q: Decide: is the reported value of CellTox Green cytotoxicity fluorescence for "CN(C)CC[C@H](CSc1ccccc1)Nc1ccc(S(=O)(=O)NC(=O)c2ccc(N3CCN(Cc4ccccc4-c4ccc(Cl)cc4)CC3)cc2)cc1[N+](=O)[O-]" equal to or greater than 1?
a: Y

----------
- Test system: MV4-11
- test-summary: CellTox Green cytotoxicity fluorescence relative to DMSO vehicle (fold of vehicle RFU); higher = more cell death (loss of membrane integrity), active = 2 or more
- condition-info: 0.1 µM; 72 h
Entry note: the call must match one of active, inactive

Observe how each entry below is paired with its result.
| molecule | class-label |
| --- | --- |
| C=CC(=O)N1CCC(Oc2cc3c(Nc4ccc(Cl)c(Cl)c4F)ncnc3cc2OC)CC1 | inactive |
| COc1cccc(-n2c(=O)[nH]c3cc(Cl)n(-c4ccc(-c5cccc(OC)c5O)cc4)c3c2=O)c1 | inactive |
| CCCCC(C=O)NC(=O)C(CC(C)C)NC(=O)C(CC(C)C)NC(C)=O (stereo unspecified) | inactive |

q: Could you check what this test reported for "CC(=NNC(=S)N1CCC1)c1ccccn1" ?
a: active

----------
- Test system: Kasumi-1
- test-summary: CellTox Green cytotoxicity fluorescence relative to DMSO vehicle (fold of vehicle RFU); higher = more cell death (loss of membrane integrity), active = 2 or more
- condition-info: 0.01 µM; 48 h
Overview of recorded CellTox Green cytotoxicity fluorescence for various compounds
Format: numeric value only, no unit, no commentary.

q: Please give the measured CellTox Green cytotoxicity fluorescence for this compound: CCS(=O)(=O)N1CCN(c2ccc(Nc3ncc(C(N)=O)c(NC4CC4)n3)cc2)CC1 [Cerdulatinib]
a: 0.983

q: # get_value(readout='CellTox Green cytotoxicity fluorescence', item= "COc1cc(C(=O)N2CCC(N3CCN(C)CC3)CC2)ccc1Nc1ncc2c(n1)N(C)c1ccccc1C(=O)N2C" )
a: 1.01

q: Could you tell me which CellTox Green cytotoxicity fluorescence is on file for COc1nc(OCc2cccc(-c3ccccc3)c2C)ccc1CNCCNC(C)=O [PD-1/PD-L1 inhibitor 2] ?
a: 0.98

q: Param item = CCCC[C@@H](C=O)NC(=O)[C@H](CC(C)C)NC(=O)OCc1ccccc1 [Calpeptin] ; retrieve measured CellTox Green cytotoxicity fluorescence.
a: 0.968

q: Return reported CellTox Green cytotoxicity fluorescence; argument: CCOC(=O)C1=C(N)Oc2ccc(Br)cc2C1C(C#N)C(=O)OCC (stereo not drawn)
a: 0.93

q: Which CellTox Green cytotoxicity fluorescence is listed for "N#Cc1ccc(-c2c(-c3ncn[nH]3)sc(N3CCOCC3)c2C#N)c(F)c1" ?
a: 0.958

q: Record request: CellTox Green cytotoxicity fluorescence value, item Nc1cccc2c1CN(C1CCC(=O)NC1=O)C2=O (stereo not drawn) [Lenalidomide]
a: 0.897

q: Consider the compound "CCCCNc1ncc2c(-c3ccc(CN4CCN(C)CC4)cc3)cn([C@H]3CC[C@H](O)CC3)c2n1" and give its measured CellTox Green cytotoxicity fluorescence.
a: 1.01

q: What does the record list as CellTox Green cytotoxicity fluorescence for "COc1cccc(-n2c(=O)[nH]c3cc(Cl)n(-c4ccc(-c5cccc(OC)c5O)cc4)c3c2=O)c1" ?
a: 0.973

q: Sample FC(F)(F)c1ccc(CNc2ccc(Cc3c[nH]c4ncc(Cl)cc34)cn2)cn1 [Pexidartinib] — what was its CellTox Green cytotoxicity fluorescence?
a: 0.998

q: Dear colleague, I am looking for the recorded CellTox Green cytotoxicity fluorescence of the following compound: "O=C(O)CSc1cc(NS(=O)(=O)c2ccc(Br)cc2)c2ccccc2c1O"
a: 0.997

q: // lookup CellTox Green cytotoxicity fluorescence for "CC(=NNC(=S)N1CCC1)c1ccccn1"
a: 1.03

q: Quick one: CellTox Green cytotoxicity fluorescence of Nc1cccc2c1C(=O)N(C1CCC(=O)NC1=O)C2=O (stereo not drawn) [Pomalidomide] ?
a: 0.996

q: Reported CellTox Green cytotoxicity fluorescence, compound CCOC(=O)c1[nH]c2cc(Cl)ccc2c1C(C(=O)NC(C)(C)C)N(C=O)Cc1ccc(Cl)cc1 (stereo not drawn) : ____
a: 1.01

q: For the compound C=CC(=O)N1CCN(C(=O)CNc2cc(I)c(Cl)cc2O)CC1 [K-Ras(G12C) inhibitor 12] , what CellTox Green cytotoxicity fluorescence is on record?
a: 1.01

q: // query CellTox Green cytotoxicity fluorescence value for entry "COc1ccc(CCNCc2ccc(OCc3ccc(Cl)nc3)c(OC)c2)cc1OC"
a: 0.942

q: Given the entry CC[C@H](NC(=O)[C@H](C)NC)C(=O)N1C[C@@H](O)C[C@H]1Cc1c(-c2[nH]c3cc(F)ccc3c2C[C@@H]2C[C@H](O)CN2C(=O)[C@H](CC)NC(=O)[C@H](C)NC)[nH]c2cc(F)ccc12 [Birinapant] , report its measured CellTox Green cytotoxicity fluorescence.
a: 1.03

q: Requested field: CellTox Green cytotoxicity fluorescence. Item: CNC(=O)c1ccc(Nc2ncc(C(F)(F)F)c(NCc3nccnc3N(C)S(C)(=O)=O)n2)cc1 [Defactinib]
a: 0.964

----------
Parameter: CellTox Green cytotoxicity fluorescence. Scope: all listed entries.
- Test system: MV4-11
- test-summary: CellTox Green cytotoxicity fluorescence relative to DMSO vehicle (fold of vehicle RFU); higher = more cell death (loss of membrane integrity), active = 2 or more
- condition-info: 0.1 µM; 72 h
Counter-ions that a name gives are not always drawn.
Keep it simple and answer with nothing but the number.

Answered cases to consult:
| molecule | CellTox Green cytotoxicity fluorescence |
| --- | --- |
| Nc1nc(F)nc2c1ncn2[C@@H]1O[C@H](CO)[C@@H](O)[C@@H]1O [Fludarabine] | 0.98 |
| COc1nc(OCc2cccc(-c3ccccc3)c2C)ccc1CNCCNC(C)=O [PD-1/PD-L1 inhibitor 2] | 0.944 |
| O=C(O)CSc1cc(NS(=O)(=O)c2ccc(Br)cc2)c2ccccc2c1O | 0.989 |
| O=C(NS(=O)(=O)c1ccc(Br)s1)c1ccc(Cl)cc1Cl [Tasisulam] | 0.992 |
| CCS(=O)(=O)N1CCN(c2ccc(Nc3ncc(C(N)=O)c(NC4CC4)n3)cc2)CC1 [Cerdulatinib] | 0.965 |

q: Lab note: need CellTox Green cytotoxicity fluorescence with MV4-11 for entry CC1(C)CC[C@]2(NC(=O)C(C)(F)F)CC[C@]3(C)[C@H](C(=O)C=C4[C@@]5(C)C=C(C#N)C(=O)C(C)(C)[C@@H]5CC[C@]43C)[C@@H]2C1 [Omaveloxolone] , please look it up.
a: 1.1

q: Any idea what CellTox Green cytotoxicity fluorescence came out for "CCO[C@@H]1OC(=O)C[C@@H]1NC(=O)[C@@H]1CCCN1C(=O)[C@@H](NC(=O)c1ccc(N)c(Cl)c1)C(C)(C)C" on MV4-11?
a: 0.996

q: Enter reported CellTox Green cytotoxicity fluorescence observed with MV4-11 for COc1c/c(=C2\C=c3ccccc3=N2)[nH]/c1=C\c1[nH]c(C)cc1C [Obatoclax Mesylate]
a: 1.02

q: Record lookup: for MV4-11, what CellTox Green cytotoxicity fluorescence belongs to "COC(=O)[C@H](CCSC)NC(=O)c1ccc(NC[C@@H](N)CS)cc1-c1ccccc1" ?
a: 0.932

q: Missing value: CellTox Green cytotoxicity fluorescence, MV4-11, entry "CN1CCN(CCCNc2ncc(Cl)c(-c3cc4c(C(=O)NC5CC5)cccc4s3)n2)CC1" . Fill in?
a: 0.965

q: Find CellTox Green cytotoxicity fluorescence (MV4-11) for the entry "Cc1cccc(CC(=O)N2CCc3c2ccc(-c2cn(C)c4ncnc(N)c24)c3F)n1"
a: 1.02

----------
- System: MV4-11
- test-summary: CellTox Green cytotoxicity fluorescence relative to DMSO vehicle (fold of vehicle RFU); higher = more cell death (loss of membrane integrity), active = 2 or more
- condition-info: 0.1 µM; 48 h
Entries and their CellTox Green cytotoxicity fluorescence values follow.

Check out these entries, answers already filled in.
| compound | CellTox Green cytotoxicity fluorescence |
| --- | --- |
| COCC[n+]1c2c(n(Cc3cnccn3)c1C)C(=O)c1ccccc1C2=O [Sepantronium Bromide] | 1.83 (inactive) |
| C=CC(=O)N1CCC(Oc2cc3c(Nc4ccc(Cl)c(Cl)c4F)ncnc3cc2OC)CC1 [Poziotinib] | 1.02 (inactive) |
| C[C@H]1Oc2cc(cnc2N)-c2c(nn(C)c2C#N)CN(C)C(=O)c2ccc(F)cc21 | 0.992 (inactive) |

q: Param item = "C/C(=N\NC(=O)c1cccc(S(=O)(=O)N2CCOCC2)c1)c1cc(Cl)ccc1O" ; retrieve measured CellTox Green cytotoxicity fluorescence.
a: 0.978 (inactive)

q: Entry under review: COc1ccc(C2=N[C@@H](c3ccc(Cl)cc3)[C@@H](c3ccc(Cl)cc3)N2C(=O)N2CCNC(=O)C2)c(OC(C)C)c1 [Nutlin-3] . Reported CellTox Green cytotoxicity fluorescence?
a: 0.999 (inactive)
